System under test: T1, human γc on cells (KHYG-1, Ramos, HPB-ALL, Jurkat, PBMC) (human) (UniProt P31785)
T1 sequence (looked up): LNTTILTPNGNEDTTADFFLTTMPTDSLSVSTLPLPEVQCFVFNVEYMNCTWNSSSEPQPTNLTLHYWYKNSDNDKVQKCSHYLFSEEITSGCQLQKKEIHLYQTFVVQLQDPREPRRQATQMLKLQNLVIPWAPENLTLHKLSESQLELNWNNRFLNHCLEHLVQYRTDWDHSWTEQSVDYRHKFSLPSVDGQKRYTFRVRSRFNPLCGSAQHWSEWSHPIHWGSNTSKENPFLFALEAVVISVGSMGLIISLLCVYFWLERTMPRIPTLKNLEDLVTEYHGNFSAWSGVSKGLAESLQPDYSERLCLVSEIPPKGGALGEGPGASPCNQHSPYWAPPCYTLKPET
Assay procedure: cell-based or functional assay
Readout type: p-STAT5 inhibition (%), IL-15 induced, KHYG-1 NK cells, flow cytometry

| Binder | Observed measurement |
| --- | --- |
| SM-05A anti-γc ScFv (scFv, part only; not given: linker and E-tag, not shown: small tags and cut ends) scFv (part 1 of 2), part: EVQLQQSGPELVKPGASVKISCKTSGYTFTEYTMHWVKQSHGKSLEWIGGIDPYNGGATYNQRFKGKATLTVDKSSSTAYMEFRSLTSEDSAVYYCARRRLYYGNALDYWGQGTSVTVSS scFv (part 2 of 2), part: DVLMTQTPLSLPVSLGDQASISCRSSQSLVHSNGNTYLHWYLQRPGQSPKLLIYKVSSRFSGVPDRFSGSGSGTDFTLKISRVEAEDLGVYFCSQTTHVPFTFGSGTKLEIKR | 48.6% |
| SM-05H anti-γc ScFv (scFv, part only; not given: linker and E-tag, not shown: small tags and cut ends) scFv (part 1 of 2), part: QVQLQQSGPELVKPGASMNIFCKTSGYTFTEYTMHWVKQSHGESLEWIGGIDPNTGGATYNQKFKGQATLTADKSSSTAYMELRSLTSEDSAVYYCARRRRYYGYALDYWGQGTSVTVSS scFv (part 2 of 2), part: DVLMTQTPLSLPVSLGDQASISCRSSQNIIHSNGNTYLEWYLQKPGQSPKLLIYKVSNRFSGVPDRFTGSGSGTDFTLKISRVEAEDLGVYFCSQSTHVPFTFGGGTKLEIKR | 51.7% |
| SM-05K anti-γc ScFv (scFv, part only; not given: linker and E-tag, not shown: small tags and cut ends) scFv (part 1 of 2), part: EVQLLESGPELVKPGASVKISCKTSGYSFTDYFMNWVKQSHGESLEWIGGIDPNTGGVTYNQKFKGKATLTVDKSASTAYMELRSLTSEDSAVYYCARRRRYYGYAMDYWGQGTSVTVSS scFv (part 2 of 2), part: DVLMTQTPLSLPVSLGDQASISCRSSQSIVHSNGNTYLEWYLQKPGQSPKLLIYKVSNRFSGVPDRFSGSGSGTDFTLKISRVEAEDLGVYFCSQSTHVPWTFGGGTKLEIKR | 43% |

Cited source for all entries: patent US20260209365A1
